# Tested on: HIV viruses (CEM-IW cell line)
# assay procedure: in vitro anti-HIV assay in CEM-IW cell line
# Assay type: cell-based
# conditions: Human immunodeficiency virus 1
pEC50: −log10 of the molar value.

- compound: "O=S1(c2ccccc2)=NC(=S)Nc2ccccc21 (stereo not shown)"
  pEC50: "~5.70"

Origin of values: patent US5321024A
